Reported IC50 values for a set of molecules
- System: HEK-293
- experimental protocol: Cell viability MTT assay, normal cells
- Format: cell-based
- study conditions: Homo sapiens, HEK293; HEK-293, 24 h, MTT; read-out: IC50

>  <compound structure string>
CN(C)c1ccc(/C=C/C(=O)c2ccc(N)cc2)cc1

>  <IC50>
> 100 µM

$$$$
>  <compound structure string>
COc1ccc(C(=O)/C=C/c2ccc(N(C)C)cc2)cc1

>  <IC50>
> 100 µM

$$$$
>  <compound structure string>
CN(C)c1ccc(/C=C/C(=O)c2ccc(N(C)C)cc2)cc1

>  <IC50>
> 100 µM

$$$$
>  <compound structure string>
Cc1ccc(C(=O)/C=C/c2ccc(N(C)C)cc2)cc1

>  <IC50>
96 µM

$$$$
>  <compound structure string>
CN(C)c1ccc(/C=C/C(=O)c2cccs2)cc1

>  <IC50>
> 100 µM

$$$$

Reference for the values: paper PMC8156934
